- System: M. catarrhalis
- assay.summary: MIC by agar plate dilution against clinical isolates of M. catarrhalis
- Type: cell-based
- condition.label: Moraxella catarrhalis, 3 strains of M. catarrhalis (clinical isolates), 18 to 24 hr, 35° C, read-out: MIC or MIC range, M. catarrhalis
The threshold is 0.1 µg/mL. Values of MIC beneath it are tagged Yes; values meeting or exceeding it are tagged No.

-- ask Does O=CN(O)C[C@@H](CC1CCCC1)C(=O)N1CCCN1C(=O)c1ccc(F)cc1 [Example 35] have MIC strictly under 0.1 µg/mL?
-- reply No

-- ask Does COc1ccc(C(=O)N2CCCCN2C(=O)[C@H](CC2CCCC2)CN(O)C=O)cc1 [Example 7] have MIC strictly under 0.1 µg/mL?
-- reply No

-- ask Does O=CN(O)C[C@@H](CC1CCCC1)C(=O)N1CCCCN1C(=O)c1ccc(N2CCOCC2)nc1 [Example 12] have MIC strictly under 0.1 µg/mL?
-- reply No

-- ask Does O=CN(O)C[C@@H](CC1CCCC1)C(=O)N1CCCN1C(=O)c1cccnc1 [Example 36] have MIC strictly under 0.1 µg/mL?
-- reply No

-- ask Does COc1ccc(C(=O)N2CCCN2C(=O)[C@H](CC2CCCC2)CN(O)C=O)cc1 [Example 33] have MIC strictly under 0.1 µg/mL?
-- reply Yes

-- ask Does O=CN(O)C[C@@H](CC1CCCC1)C(=O)N1CCCN1C(=O)c1ccncc1 [Example 30] have MIC strictly under 0.1 µg/mL?
-- reply No

-- ask Does COc1ccccc1NC(=O)N1CCCCN1C(=O)[C@H](CC1CCCC1)CN(O)C=O [Example 20] have MIC strictly under 0.1 µg/mL?
-- reply Yes

-- ask Does COCC(=O)N1CCCCN1C(=O)[C@H](CC1CCCC1)CN(O)C=O [Example 2] have MIC strictly under 0.1 µg/mL?
-- reply No

----------
So I've got a bunch of compounds here, and I need their MIC values.
- Test system: S. pneumoniae
- assay.summary: MIC by agar plate dilution against clinical isolates of S. pneumoniae
- Assay type: cell-based
- condition.label: Streptococcus pneumoniae, 6 strains of S. pneumoniae (clinical isolates), 18 to 24 hr, 35° C, read-out: MIC or MIC range, S. pneumoniae

-- ask Need MIC of O=CN(O)C[C@@H](CC1CCCC1)C(=O)N1CCCN1C(=O)c1ccoc1 [Example 37] , thanks.
-- reply 4 µg/mL

-- ask Need MIC of O=CN(O)C[C@@H](CC1CCCC1)C(=O)N1CCCCN1C(=O)Nc1ccc(C(F)(F)F)cc1 [Example 18] , thanks.
-- reply 4 µg/mL

-- ask Need MIC of O=CN(O)C[C@@H](CC1CCCC1)C(=O)N1CCCN1C(=O)c1cccnc1 [Example 36] , thanks.
-- reply 8 µg/mL

-- ask Need MIC of O=CN(O)C[C@@H](CC1CCCC1)C(=O)N1CCCCN1C(=O)c1ccoc1 [Example 9] , thanks.
-- reply 0.5 to 2 µg/mL

-- ask Need MIC of O=CN(O)C[C@@H](CC1CCCC1)C(=O)N1CCCN1C(=O)c1ccccc1 [Example 27] , thanks.
-- reply 16 µg/mL

-- ask Need MIC of O=CN(O)C[C@@H](CC1CCCC1)C(=O)N1CCCN1C(=O)c1ccc(N2CCOCC2)nc1 [Example 32] , thanks.
-- reply 1 to 8 µg/mL

-- ask Need MIC of COc1cccc(NC(=O)N2CCCCN2C(=O)[C@H](CC2CCCC2)CN(O)C=O)c1 [Example 15] , thanks.
-- reply 2 to 4 µg/mL

-- ask Need MIC of COc1ccc(C(=O)N2CCCCN2C(=O)[C@H](CC2CCCC2)CN(O)C=O)cc1 [Example 7] , thanks.
-- reply 0.5 to 4 µg/mL

-- ask Need MIC of O=CN(O)C[C@@H](CC1CCCC1)C(=O)N1CCCCN1C(=O)c1ccc(N2CCOCC2)nc1 [Example 12] , thanks.
-- reply 2 to 16 µg/mL

-- ask Need MIC of O=CN(O)C[C@@H](CC1CCCC1)C(=O)N1CCCCN1C(=O)c1ccccc1 [Example 3] , thanks.
-- reply 0.5 to 2 µg/mL

-- ask Need MIC of O=CN(O)C[C@@H](CC1CCCC1)C(=O)N1CCCCN1C(=O)Nc1ccccc1 [Example 14] , thanks.
-- reply 2 to 4 µg/mL

-- ask Need MIC of O=CN(O)C[C@@H](CC1CCCC1)C(=O)N1CCCN1C(=O)C1CCCCC1 [Example 31] , thanks.
-- reply 8 µg/mL

-- ask Need MIC of O=CN(O)C[C@@H](CC1CCCC1)C(=O)N1CCCCN1C(=O)Cc1ccccc1 [Example 11] , thanks.
-- reply 0.5 to 4 µg/mL

-- ask Need MIC of O=CN(O)C[C@@H](CC1CCCC1)C(=O)N1CCCN1C(=O)c1ccncc1 [Example 30] , thanks.
-- reply 16 to 32 µg/mL

-- ask Need MIC of COCC(=O)N1CCCN1C(=O)[C@H](CC1CCCC1)CN(O)C=O [Example 26] , thanks.
-- reply 8 µg/mL

-- ask Need MIC of O=CN(O)C[C@@H](CC1CCCC1)C(=O)N1CCCCN1C(=O)Nc1ccc(F)cc1 [Example 16] , thanks.
-- reply 4 to 8 µg/mL

-- ask Need MIC of COCC(=O)N1CCCCN1C(=O)[C@H](CC1CCCC1)CN(O)C=O [Example 2] , thanks.
-- reply 1 to 8 µg/mL
